- System: MDA-MB-231
- Assay details: Antiproliferative activity against human MDA-MB-231 cells assessed as inhibition of cell proliferation measured after 48 hrs by CCK8 assay
- Assay type: functional, cell-based
- Condition info: MDA-MB-231, 48 h
Reported property: GI50 (µM)
Just the number in µM, nothing appended.

Any idea what GI50 was measured for `Cc1ccccc1Nc1nc(Nc2ccc(N3CCN(C)CC3)cc2)ncc1Cl` ?
7.02

Now the same for `CC(C)c1cccc(Nc2nc(Nc3ccc(N4CCN(C)CC4)cn3)ncc2Cl)c1`
5.59

Now the same for `Cc1ccccc1Nc1nc(Nc2cc(Cl)ccn2)ncc1Cl`
52.4

Now the same for `CCc1ccc(Nc2nc(Nc3ccc(N4CCN(C)CC4)cn3)ncc2Cl)cc1`
5.56

Now the same for `CN1CCN(c2ccc(Nc3ncc(Cl)c(Nc4ccccc4)n3)nc2)CC1`
37.4

Now the same for `CN1CCN(c2ccc(Nc3ncc(Cl)c(Nc4ccc(C(C)(C)C)cc4)n3)nc2)CC1`
16.2

###

- Assay details: Apparent permeability in human Caco2 cells measured after 90 mins by LC-MS/MS analysis
- Assay type: ADME, cell-based
- Condition info: Caco-2
Reported property: Papp at 1.5 h
Give me the value, and tack the unit on after it.

Any idea what Papp at 1.5 h was measured for `CC(=O)Nc1cccc(Nc2nc(Nc3ccc(N4CCN(C)CC4)cn3)ncc2Cl)c1` ?
1.7 ×10⁻⁶ cm/s

###

- Assay details: Clearance in Sprague-Dawley rat at 2 mg/kg, iv by LC-MS/MS analysis
- Format: ADME, organism-based
- Condition info: in vivo
Reported property: clearance (mL/min/kg)
Just the number in mL/min/kg, nothing appended.

Any idea what clearance was measured for `CC(=O)Nc1cccc(Nc2nc(Nc3ccc(N4CCN(C)CC4)cn3)ncc2Cl)c1` ?
52.2

###

- System: MDA-MB-231
- Assay details: Antiproliferative activity against human MDA-MB-231 cells assessed as inhibition of cell proliferation measured after 48 hrs by CCK8 assay
- Type: functional, cell-based
- Condition info: MDA-MB-231, 48 h
Reported property: GI50

Any idea what GI50 was measured for `Cc1ccccc1Nc1nc(NCCc2ccccn2)ncc1Cl` ?
> 100 µM

Now the same for `Cc1ccc(CNc2nc(Nc3ccc(N4CCN(C)CC4)cn3)ncc2Cl)cc1`
18.6 µM

Now the same for `Cc1ccccc1Nc1nc(Nc2ccncc2)ncc1Cl`
68.1 µM

Now the same for `CN1CCN(c2ccc(Nc3ncc(Cl)c(NCc4ccccc4)n3)nc2)CC1`
24.8 µM

Now the same for `Cc1ccccc1Nc1nc(Nc2ccc(N3CCCN(C)CC3)cc2)ncc1Cl`
6.39 µM

Now the same for `COc1ccc(CCNc2nc(Nc3ccc(N4CCN(C)CC4)cn3)ncc2Cl)cc1`
> 100 µM

###

Reported IC50, CDK2/Cyclin A2 (Homo sapiens, UniProt P24941).

Any idea what IC50 was measured for `Cc1cccc(Nc2nc(Nc3ccc(N4CCN(C)CC4)cn3)ncc2Cl)c1` ?
> 10 µM

Now the same for `Cc1ccccc1Nc1nc(NC2CC2)ncc1Cl`
> 10 µM

Now the same for `COc1ccc(CNc2nc(Nc3ccc(N4CCN(C)CC4)cn3)ncc2Cl)cc1`
> 10 µM

Now the same for `CC(C)c1ccccc1Nc1nc(Nc2ccc(N3CCN(C)CC3)cn2)ncc1Cl`
> 10 µM

Now the same for `CN1CCN(c2ccc(Nc3ncc(Cl)c(NCCc4ccccc4)n3)nc2)CC1`
> 10 µM

Now the same for `Cc1ccccc1Nc1nc(Nc2ccccc2)ncc1Cl`
> 10 µM

Now the same for `COc1cccc(Nc2nc(Nc3ccc(N4CCN(C)CC4)cn3)ncc2Cl)c1`
0.701 µM

Now the same for `Cc1ccccc1Nc1nc(NC2CCCCC2)ncc1Cl`
> 10 µM

Now the same for `CN1CCN(c2ccc(Nc3ncc(Cl)c(NCCc4ccc(F)cc4)n3)nc2)CC1`
> 10 µM

Now the same for `Cc1ccccc1Nc1nc(Nc2ccc(N3CCN(C)CC3)cc2)ncc1Cl`
1.19 µM

Now the same for `Cc1ccccc1Nc1nc(Nc2cccnc2)ncc1Cl`
0.03 µM

Now the same for `Cc1ccc(Nc2nc(Nc3ccc(N4CCN(C)CC4)cn3)ncc2Cl)cc1`
> 10 µM

Now the same for `Cc1ccccc1Nc1nc(Nc2ccc(N3CCN(C)CC3)cn2)ncc1Cl`
> 10 µM

Now the same for `CC(C)c1ccc(Nc2nc(Nc3ccc(N4CCN(C)CC4)cn3)ncc2Cl)cc1`
> 10 µM

Now the same for `CC(C)c1cccc(Nc2nc(Nc3ccc(N4CCN(C)CC4)cn3)ncc2Cl)c1`
> 10 µM

Now the same for `CN1CCN(c2ccc(Nc3ncc(Cl)c(Nc4ccccc4)n3)nc2)CC1`
> 10 µM

Now the same for `COc1ccc(CCNc2nc(Nc3ccc(N4CCN(C)CC4)cn3)ncc2Cl)cc1`
> 10 µM

Now the same for `CC(=O)Nc1cccc(Nc2nc(Nc3ccc(N4CCN(C)CC4)cn3)ncc2Cl)c1`
> 10 µM

Now the same for `CN1CCN(c2ccc(Nc3ncc(Cl)c(NCc4ccccc4)n3)nc2)CC1`
> 10 µM

Now the same for `Cc1ccccc1Nc1nc(Nc2ccc(N3CCOCC3)cc2)ncc1Cl`
2.68 µM

Now the same for `Cc1cc(C)c(Nc2nc(Nc3ccc(N4CCN(C)CC4)cn3)ncc2Cl)c(C)c1`
> 10 µM

Now the same for `COc1ccccc1CNc1nc(Nc2ccc(N3CCN(C)CC3)cn2)ncc1Cl`
> 10 µM

###

- System: MDA-MB-231
- Assay details: Antiproliferative activity against human MDA-MB-231 cells assessed as inhibition of cell proliferation measured after 48 hrs by CCK8 assay
- Assay type: functional, cell-based
- Condition info: MDA-MB-231, 48 h
Reported property: GI50 (µM)
Just the number in µM, nothing appended.

Any idea what GI50 was measured for `Cc1ccccc1Nc1nc(Nc2ccc(N3CCN(C)CC3)cn2)ncc1Cl` ?
7.47

Now the same for `COc1ccc(Nc2nc(Nc3ccc(N4CCN(C)CC4)cn3)ncc2Cl)cc1`
8.02

Now the same for `CCN1CCN(Cc2ccc(Nc3ncc(F)c(-c4cc(F)c5nc(C)n(C(C)C)c5c4)n3)nc2)CC1`
3.45

Now the same for `COc1ccc(CNc2nc(Nc3ccc(N4CCN(C)CC4)cn3)ncc2Cl)cc1`
14.9

Now the same for `CC(C)c1ccccc1Nc1nc(Nc2ccc(N3CCN(C)CC3)cn2)ncc1Cl`
4.09

Now the same for `Cc1ccccc1Nc1nc(Nc2ccc(N3CCOCC3)cn2)ncc1Cl`
5.98

Now the same for `Cc1cc(C)c(Nc2nc(Nc3ccc(N4CCN(C)CC4)cn3)ncc2Cl)c(C)c1`
21

Now the same for `Cc1ccccc1Nc1nc(Nc2ccc(N3CCCCC3)cc2)ncc1Cl`
19.9

###

- Assay details: Half life in Sprague-Dawley rat at 2 mg/kg, iv by LC-MS/MS analysis
- Type: ADME, organism-based
- Condition info: in vivo
Reported property: half-life (h)
Just the number in h, nothing appended.

Any idea what half-life was measured for `CC(=O)Nc1cccc(Nc2nc(Nc3ccc(N4CCN(C)CC4)cn3)ncc2Cl)c1` ?
1.76

###

- Tested on: MCF7
- Assay details: Antiproliferative activity against human MCF7 cells assessed as inhibition of cell proliferation measured after 48 hrs by CCK8 assay
- Assay type: functional, cell-based
- Condition info: MCF7, 48 h
Could you mark each record fulfilled if its GI50 falls strictly under 10 µM, and not fulfilled if it equals or exceeds it?

Report whether reported GI50 is lower than 10 µM (strictly) for `CN1CCN(c2ccc(Nc3ncc(Cl)c(NCCc4ccc(F)cc4)n3)nc2)CC1`
not fulfilled

Now the same for `CN1CCN(c2ccc(Nc3ncc(Cl)c(Nc4ccc(C(C)(C)C)cc4)n3)nc2)CC1`
not fulfilled

Now the same for `Cc1ccccc1Nc1nc(Nc2ccc(N3CCN(C)CC3)cn2)ncc1Cl`
fulfilled

Now the same for `CCN1CCN(c2ccc(Nc3ncc(Cl)c(Nc4ccccc4C)n3)nc2)CC1`
not fulfilled

Now the same for `Cc1ccccc1Nc1nc(Nc2ccccc2)ncc1Cl`
not fulfilled

Now the same for `CCN1CCN(c2ccc(Nc3ncc(Cl)c(Nc4ccccc4C)n3)cc2)CC1`
fulfilled

Now the same for `COc1ccc(CCNc2nc(Nc3ccc(N4CCN(C)CC4)cn3)ncc2Cl)cc1`
not fulfilled

Now the same for `Cc1ccccc1Nc1nc(NCCc2cccnc2)ncc1Cl`
not fulfilled

Now the same for `Cc1ccccc1Nc1nc(Nc2ccc(N3CCCCC3)cn2)ncc1Cl`
not fulfilled

Now the same for `Cc1ccccc1Nc1nc(NCc2ccccc2)ncc1Cl`
not fulfilled

Now the same for `COc1cc(Nc2ncc(Cl)c(Nc3ccccc3C)n2)ccn1`
not fulfilled

###

- System: Jurkat
- Assay details: Antiproliferative activity against human Jurkat cells assessed as inhibition of cell proliferation measured after 48 hrs by CCK8 assay
- Type: functional, cell-based
Reported property: GI50

Any idea what GI50 was measured for `Cc1ccccc1Nc1nc(Nc2ccc(N3CCN(C(=O)OC(C)(C)C)CC3)cc2)ncc1Cl` ?
5.12 µM

Now the same for `CN1CCN(c2ccc(Nc3ncc(Cl)c(NCCc4ccccc4)n3)nc2)CC1`
> 100 µM

Now the same for `Cc1ccc(CNc2nc(Nc3ccc(N4CCN(C)CC4)cn3)ncc2Cl)cc1`
12.7 µM

Now the same for `Cc1ccccc1Nc1nc(Nc2ccc(N3CCCCC3)cn2)ncc1Cl`
> 100 µM

Now the same for `Cc1ccccc1Nc1nc(Nc2ccc(N3CCCN(C)CC3)cc2)ncc1Cl`
11.3 µM
